Assay: Photophysical characterization (absorbance, extinction coefficient, emission, quantum yield)
Assay type: physicochemical
Conditions: Table 4 indoles, in water
Answer each item with its documented ε (M^−1cm^−1).

Some entries whose results are on file:
{"columns": ["smiles record", "result"],
 "data": [
  ["O=c1ccc2c(ccc3[nH]ccc32)o1", "9,400 ± 900 M^−1cm^−1"],
  ["Cc1cc(=O)oc2ccc3[nH]ccc3c12", "11,600 ± 800 M^−1cm^−1"],
  ["O=c1ccc2cc3[nH]ccc3cc2o1", "17,000 ± 2,000 M^−1cm^−1"],
  ["CCN(CC)c1ccc2c(C)c(-c3ccc4cc[nH]c4c3)c(=O)oc2c1", "20,000 ± 3,000 M^−1cm^−1"],
  ["Cc1cc(=O)oc2ccc3cc[nH]c3c12", "14,000 ± 3,000 M^−1cm^−1"]
]}

Please look at the following molecule next.
Query: What does the data say about its ε (M^−1cm^−1)? Entry: CCN(CC)c1ccc2cc(-c3ccc4[nH]ccc4c3)c(=O)oc2c1
Result: 17,000 ± 1,000 M^−1cm^−1

---

Answer each item with its documented λmax (nm).
Assay: Photophysical characterization (absorbance, extinction coefficient, emission, quantum yield)
Type: physicochemical
Conditions: Table 3 hydroxyl-amine probes, in water
Method: Extinction coefficients were the average of three independent determinations of three different readings from the lowest energy transition at three concentrations. […] All spectra were recorded in 100 mM sodium phosphate (pH 7.4) unless otherwise indicated. Recorded λmax is that of the longest wavelength transition. […] Fluorescence measurements were taken on a Jobin Yvon Fluorolog fluorescence spectrofluorometer (slits 3, HV 750) in 100 mM sodium phosphate pH 7.4 buffer unless otherwise indicated. […]
Numbers only, in nm.

Batch of 5 compounds: report λmax (nm) for each.
1. CCN(CC)c1ccc2c(C)c(-c3ccc(N)c(CCO)c3)c(=O)oc2c1 [VI]
2. Nc1cc2ccc(=O)oc2cc1CCO [VIII]
3. Nc1ccc2oc(=O)ccc2c1CCO [IX]
4. Cc1c(-c2ccc(N)c(CCO)c2)c(=O)oc2c3c4c(cc12)CCCN4CCC3 [VII]
5. Nc1c(CCO)ccc2oc(=O)ccc12 [X]

Result:
394
354
357
391
298

---

Assay: Solubility in aqueous solution
Format: physicochemical
Details: in words

{"columns": ["smiles record", "solubility in aqueous solution"],
 "data": [
  ["CCN(CC)c1ccc2c(C)c(-c3ccc(N)c(CCO)c3)c(=O)oc2c1", "reasonably soluble"],
  ["CCN(CC)c1ccc2c(C)c(-c3ccc4[nH]ccc4c3)c(=O)oc2c1", "reasonably soluble"]
]}

---

Assay: Photophysical characterization (absorbance, extinction coefficient, emission, quantum yield)
Type: physicochemical
Details: aqueous / phosphate buffer

{"columns": ["compound", "fluorescence, in words"],
 "data": [
  ["Cc1cc(=O)oc2ccc3[nH]ccc3c12 [Probe 52, 9-Methyl-3H-pyrano[3,2-e]indol-7-one]", "quite fluorescent"],
  ["O=c1ccc2cc3[nH]ccc3cc2o1 [Probe 59, 1H-Pyrano[2,3-f]indol-6-one]", "quite fluorescent"],
  ["Cc1cc(=O)oc2ccc3cc[nH]c3c12 [Probe 55, 9-Methyl-1H-pyrano[2,3-g]indol-7-one]", "quite fluorescent"]
]}
